Test: gradient 5% acetonitrile 3 min, to 50% in 2 min, to 85% in 15 min, held 3 min, 100 µL/min
Conditions: column: Zorbax Extend-C18 2.1 x 50 mm; eluents: water / acetonitrile, 0.1% formic acid
Label scheme for RP-LC retention time: lower than 900 s is f, 900 s and above is t.

compound: O=C(CCc1nc(CSc2nc3ccccc3s2)no1)Nc1nc(-c2ccccc2)cs1
assigned-label: t
--
compound: Cc1ccc(-n2ccc(=O)c(-c3nc(-c4ccccc4Br)no3)n2)cc1C
assigned-label: t
--
compound: CC(C)(OCc1nn(Cc2ccccc2)c2ccccc12)C(=O)O
assigned-label: t
--
compound: CCCOC(=O)C1=CN(Cc2ccccc2)S(=O)(=O)N=C1C
assigned-label: t
--
compound: CCOc1ccccc1-c1noc(CN2C(=O)COc3cc(C)ccc32)n1
assigned-label: t
--
compound: Cc1cc(C)n(CCNc2nc3c(F)cc(F)cc3s2)n1
assigned-label: f
--
compound: Cc1ccc(CNC(=O)N2CCC(N3CCN(Cc4cccc(F)c4)C(=O)C3=O)CC2)cc1
assigned-label: f
--
compound: Cc1c(-c2ccnc(N3CCN(C)CC3)n2)cnc2nc(-c3ccccc3)nn12
assigned-label: f
--
compound: Cc1ccc(C)c(CN2CCC(CNC(=O)c3c(C)oc4c3C3=NCCN3C=N4)CC2)c1
assigned-label: f
--
compound: COc1ccc(CCC(=O)N2CCC3(C2)C(=O)N(C)c2ccc(OC)cc23)cc1 (stereo unspecified)
assigned-label: f
--
compound: O=C(Cn1cccc1-c1nnc(-c2ccccc2)o1)Nc1cccc(F)c1
assigned-label: t
--
compound: CCOc1ccc2nc(NC(=O)C3CCN(c4ccc(-n5cccn5)nn4)CC3)sc2c1
assigned-label: f
--
compound: Cc1cccc(-c2ncccc2CNS(=O)(=O)c2ccc(F)cc2)c1
assigned-label: f
--
compound: CSc1ccc(-c2nc3ccc(C)cn3c2Nc2ccc3c(c2)OCCO3)cc1
assigned-label: f
--
compound: Cc1ccc(NC(=O)N2CCC(n3cnc4ccc(C)cc4c3=O)CC2)c(Cl)c1
assigned-label: f
--
compound: Cc1ccc(-c2ccnc(SCC(=O)Nc3ccccc3C(F)(F)F)n2)cc1C
assigned-label: t
--
compound: Cc1nc(CCNS(=O)(=O)c2ccc(Cl)c(C)c2)no1
assigned-label: f
--
compound: Cc1cn2c(S(=O)(=O)NC3CCCCCC3)c(C(C)C)nc2s1
assigned-label: t
--
compound: Cc1ccc(C)c(NC(=O)NC2CCN(c3ccccc3)C2=O)c1 (stereo unspecified)
assigned-label: f
--
compound: COC(=O)c1ccccc1NC(=O)CCc1c(-c2ccc(F)cc2)nc2ccccn12
assigned-label: f
--
compound: COc1cc(NC(=O)C2CCCN(c3nccnc3Sc3ccccc3)C2)cc(OC)c1OC (stereo unspecified)
assigned-label: t
